The measurements presented in this section are drawn from the RNAGym collection of RNA variant scans (doi:10.1038/nmeth.2970).

B1: NELF-E aptamer (parent)
chain: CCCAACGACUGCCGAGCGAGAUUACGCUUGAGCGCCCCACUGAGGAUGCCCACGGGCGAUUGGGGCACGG

- Variants of: B1
- ASSAY_OVERVIEW: HiTS-RAP
- CONDITIONS_USED: with NELF-E (Drosophila)
pKd: −log10 of the molar value.
# label = Satisfied if pKd >= 8 else Not satisfied

# ENTRY_SEQUENCE, CLASS_ASSIGNMENT
measured = [
    ("CCCAACGACUGCGGAGCGAGAUUACGCUUGAGCUCCCCACUGAGGAUGCCCACGGGCGAUUGGGGCACGG", "Satisfied"),
    ("CCCAACGACUGCCGAGGGAGAUUACGCUUGAGCGCCCCACUGAGGAUGCCCACGGGCGAUUAGGGCACGG", "Not satisfied"),
    ("CCCAACGUCUGCCGAGCGAGAUUACGCUUGAGCGCCACACUGAGGAUGCCCACGGGCGAUUGGGGCACGG", "Not satisfied"),
    ("CCCAACGACUGCCGAGCGGGAUUACGCUUGAGCGCCCCACUGAGGAUGCCCACGGGUGAUUGGGGCACGG", "Satisfied"),
    ("CCCAACGACUGCCGAGCGAGAUUACGCUAGAGCGCCCCACUGAGGAUGCCCAUGGGCGAUUGGGGCACGG", "Satisfied"),
    ("CCCAACGACUGCGGAGCGAGAUUACGCUUGAGCGCCCCACUGAGGAUGCCCACGGUCGAUUGGGGCACGG", "Satisfied"),
    ("CCCAAGGACUGCCGAGCGAGAUUACGCUUGAGCGCCCCACUGAGGAUGCCCACGGGCGAUCGGGGCACGG", "Not satisfied"),
    ("CCCAACGACUGCCGAGCAAGAUUACGCUGGAGCGCCCCACUGAGGAUGCCCACGGGCGAUUGGGGCACGG", "Satisfied"),
    ("CCCAACGACGGCCGAGCGAAAUUACGCUUGAGCGCCCCACUGAGGAUGCCCACGGGCGAUUGGGGCACGG", "Satisfied"),
    ("CCCAACGACUGCCGAGCGAGAGUGCGCUUGAGCGCCCCACUGAGGAUGCCCACGGGCGAUUGGGGCACGG", "Satisfied"),
    ("CCCAACGACUGCCGAUCGAGAUUACGCUUGAGCGCCCCACUAAGGAUGCCCACGGGCGAUUGGGGCACGG", "Not satisfied"),
]
